meta.source: ChEMBL document CHEMBL1144045

Biological target: Growth hormone secretagogue receptor type 1 (Homo sapiens)
Sequence (Q92847 whole entry): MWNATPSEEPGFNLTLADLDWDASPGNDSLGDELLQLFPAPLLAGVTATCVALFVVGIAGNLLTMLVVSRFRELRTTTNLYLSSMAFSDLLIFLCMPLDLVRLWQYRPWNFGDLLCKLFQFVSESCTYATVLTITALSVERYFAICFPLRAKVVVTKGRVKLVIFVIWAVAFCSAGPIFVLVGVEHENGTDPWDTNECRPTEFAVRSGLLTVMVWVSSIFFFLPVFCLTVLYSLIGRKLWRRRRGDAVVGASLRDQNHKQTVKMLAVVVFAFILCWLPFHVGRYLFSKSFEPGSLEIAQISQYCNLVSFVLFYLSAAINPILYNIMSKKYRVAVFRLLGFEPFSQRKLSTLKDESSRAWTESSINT
Assay: Agonist activity at human GHSR1a by FLIPR assay
pEC50: −log10 of the molar value.
readoutKind: pEC50

P. COc1ccc(N2C[C@@H](C)N[C@@H](C)C2)cc1NS(=O)(=O)c1ccc(N2CCCC2=O)cc1
Q. COc1ccc(N2C[C@@H](C)N[C@@H](C)C2)cc1NS(=O)(=O)c1ccc(-c2ccccc2)cc1
Prompt line: Could you tell me which of P and Q has the lower pEC50 reading? Give the chosen item's label as your response.
Response line: P

1. C[C@@H]1CN(c2cccc(NS(=O)(=O)c3ccc(-c4ccccn4)s3)c2)C[C@H](C)N1
2. COc1ccc(N2C[C@@H](C)N[C@@H](C)C2)cc1NS(=O)(=O)c1cccc(-c2ccccc2)c1
Prompt line: Choose between 1 and 2 : whose measured pEC50 value is numerically larger? Give the chosen item's label as your response.
Response line: 1

A. COc1ccc(NS(=O)(=O)c2ccc(-c3ccccn3)s2)cc1N1C[C@@H](C)N[C@@H](C)C1
B. COc1cccc(-c2ccc(S(=O)(=O)Nc3cc(N4C[C@@H](C)N[C@@H](C)C4)ccc3OC)cc2)c1
C. COc1ccc(N2C[C@@H](C)N[C@@H](C)C2)cc1NS(=O)(=O)c1ccc(-c2cccs2)cc1Cl
D. COc1ccc(N2C[C@@H](C)N[C@@H](C)C2)cc1NS(=O)(=O)c1ccc(-c2cccs2)cc1
E. COc1ccc(N2C[C@@H](C)N[C@@H](C)C2)cc1NS(=O)(=O)c1ccc(-c2cc(Cl)ccc2F)cc1
Prompt line: Thanks in advance: please rank these 5 entries by pEC50, highest to lowest. Output spec: a listing of the labels in the requested order.
Response line: E, C, B, D, A
